tested on: SR leukemia; assay: NCI tumour cell line growth inhibition, 48 h
MEASURE: TGI

COMPOUND: C[C@@]1(N2C(=O)OC[C@@H]2c2ccccc2)C(=O)N([C@H](CC(=O)N2CCC(N3CCCCC3)CC2)C(=O)NCc2cccc(C(F)(F)F)c2)[C@@H]1/C=C/c1ccccc1
RESULT: 4.7 µM

COMPOUND: COc1ccc(-c2nocc2-c2cc(OC)c(OC)c(OC)c2)cc1
RESULT: > 76.3 µM

COMPOUND: BrC12c3ccccc3Sc3ccccc3C1(Br)c1ccccc12 (stereo not drawn)
RESULT: 41.4 µM

COMPOUND: COc1ccc(CNc2nc(NCc3ccc(OC)cc3)c3n[nH]c(C(C)C)c3n2)cc1
RESULT: 6.17 µM

COMPOUND: COc1cc(NC(N)=NCCC(C)(C)c2ccc(C(F)(F)F)cc2)ncc1C#N
RESULT: 4.06 µM

COMPOUND: COc1ccc(/C=C/C(=O)c2ccc(Nc3ccnc4cc(Cl)ccc34)cc2)cc1
RESULT: 10.1 µM

COMPOUND: COc1cc2c(cc1O)C(C)Cc1cc3c(cc1N(C)CC2)OCO3 (stereo not drawn)
RESULT: > 100 µM

COMPOUND: Cn1cnc([N+](=O)[O-])c1Sc1nc(N)nc2c1ncn2Cc1ccccc1
RESULT: > 100 µM

COMPOUND: Cc1cccc(NC(=S)N/N=C(/c2ccccc2)c2ccccn2)c1
RESULT: 7.13 µM

COMPOUND: COC1(C)C=NCC(C)(C)NC(=O)C(C)(OC)C=NCC(C)(C)NC1=O (stereo not drawn)
RESULT: > 10 µM

COMPOUND: COC(=O)C1CCC(=O)N1C(c1ccc2c(c1)OCO2)c1ccc2c(c1)OCO2 (stereo not drawn)
RESULT: > 100 µM

COMPOUND: Cc1nn(C)c2c1C(=O)N(C)CC(=O)N2C
RESULT: > 100 µM

COMPOUND: CC1(C)CC[C@]2(C(=O)O)CC[C@]3(C)C(=CC[C@@H]4[C@@]5(C)CC[C@H](OC6OC(CO)C(O)C(O)C6OC6OC(CO)C(O)C(O)C6O)C(C)(C)[C@@H]5CC[C@]43C)[C@@H]2C1 (stereo partly drawn)
RESULT: 68 µM

COMPOUND: O=C(CSc1nnc(-c2ccc(N=Cc3ccc(Cl)cc3)cc2)o1)Nc1cccc(Cl)c1
RESULT: > 100 µM

COMPOUND: Cn1c(=O)c2nc(N3CCCCC3)cnc2n(C)c1=O
RESULT: > 100 µM

COMPOUND: CC1Cc2cc(O)ccc2C2[C@@H]1C1CC[C@H](O)[C@@]1(C)C[C@@H]2O[N+](=O)[O-] (stereo partly drawn)
RESULT: > 56.8 µM

COMPOUND: CC(C)CC(=O)NS(=O)(=O)c1ccccc1
RESULT: > 100 µM

COMPOUND: CNC1C(OC2C(OC3C(O)C(O)C(O)C(O)C3O)OC(C)C2(O)CO)OC(CO)C(O)C1O (stereo not drawn) (tested in a mixture with another compound)
RESULT: > 100 µM

COMPOUND: O=C1c2cccnc2C(=O)c2c1c(C(=O)OCCN1CCOCC1)c1ccccn21
RESULT: 1.83 µM

COMPOUND: CC1=C(C)C(=O)OC([C@](C)(O)[C@]2(O)CC[C@@]3(O)[C@@H]4C[C@H]5O[C@]56CC=CC(=O)[C@]6(C)[C@H]4CC[C@]23COC(=O)c2ccc(C)o2)C1 (stereo partly drawn)
RESULT: > 100 µM

COMPOUND: CCOC(=O)c1cc(-c2ccc(Cl)cc2)c([N+](=O)[O-])n1C
RESULT: > 10 µM

COMPOUND: O=C1O[C@H]2[C@@H]3OC(=O)c4cc(O)c(O)c(O)c4-c4c(cc(O)c(O)c4O)C(=O)OC[C@H]2O[C@@H](OC(=O)c2cc(O)c(O)c(O)c2)[C@@H]3OC(=O)c2cc(O)c(O)c3c2[C@@H]2C1=CC(=O)C(O)(O)C2(O)O3 (stereo partly drawn)
RESULT: > 100 µM

COMPOUND: ClC[Si]12OCCN(CCO1)CCO2
RESULT: > 100 µM

COMPOUND: CCNCCNC(=O)c1ccc(Br)cc1
RESULT: > 100 µM

COMPOUND: O=c1cccc(C#CC#C/C=C/CO)o1
RESULT: > 100 µM

COMPOUND: CC[C@]12CCCN3CC[C@]4(C(=C(C(=O)OC)C1)Nc1ccccc14)[C@@H]32
RESULT: > 100 µM

COMPOUND: N=c1ccn2c(n1)O[C@@H]1[C@@H](O)[C@H](CO)O[C@@H]12
RESULT: 21 µM

COMPOUND: CC(Oc1ccc2cc(C(=O)c3ccccc3)c(=O)oc2c1)C(=O)O (stereo not drawn)
RESULT: > 100 µM
